Where these numbers come from: patent US20060257938A1

assay: Probe fluorescence ratio response to palmitoleic acid relative to ADIFAB2; type: binding; details: Table 5

molecule | ΔR/DRAΔ2 POA
L2P2E11: FABP probe, substitutions M18I G31F vs SEQ ID NO: 2 (protein, listed as Rattus norvegicus, PEPTIDE (1)...(131) wild-type rat intestinal fatty acid binding protein) AFDGTWKVDRNENYEKFIEKMGINVVKRKLFAHDNLKLTITQEGNKFTVKESSNFRNIDVVFELGVDFAYSLADGTELTGTWTMEGNKLVGKFKRVDNGKELIAVREISGNELIQTYTYEGVEAKRIFKKE | 2.6
L2P22G6: FABP probe, substitutions M18I G31Y A73G vs SEQ ID NO: 2 (protein, listed as Rattus norvegicus, PEPTIDE (1)...(131) wild-type rat intestinal fatty acid binding protein) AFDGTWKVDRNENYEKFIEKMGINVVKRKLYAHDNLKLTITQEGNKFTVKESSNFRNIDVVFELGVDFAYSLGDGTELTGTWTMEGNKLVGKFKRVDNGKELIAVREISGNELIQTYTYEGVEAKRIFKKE | 2.6
L2P22E6: FABP probe, substitutions M18V G31A F55I A73W vs SEQ ID NO: 2 (protein, listed as Rattus norvegicus, PEPTIDE (1)...(131) wild-type rat intestinal fatty acid binding protein) AFDGTWKVDRNENYEKFVEKMGINVVKRKLAAHDNLKLTITQEGNKFTVKESSNIRNIDVVFELGVDFAYSLWDGTELTGTWTMEGNKLVGKFKRVDNGKELIAVREISGNELIQTYTYEGVEAKRIFKKE | 1.6
L2P8B8: FABP probe, substitution A73F vs SEQ ID NO: 2 (protein, listed as Rattus norvegicus, PEPTIDE (1)...(131) wild-type rat intestinal fatty acid binding protein) AFDGTWKVDRNENYEKFMEKMGINVVKRKLGAHDNLKLTITQEGNKFTVKESSNFRNIDVVFELGVDFAYSLFDGTELTGTWTMEGNKLVGKFKRVDNGKELIAVREISGNELIQTYTYEGVEAKRIFKKE | 2.4
L2P23G7: FABP probe, substitutions M18V G31F F55L vs SEQ ID NO: 2 (protein, listed as Rattus norvegicus, PEPTIDE (1)...(131) wild-type rat intestinal fatty acid binding protein) AFDGTWKVDRNENYEKFVEKMGINVVKRKLFAHDNLKLTITQEGNKFTVKESSNLRNIDVVFELGVDFAYSLADGTELTGTWTMEGNKLVGKFKRVDNGKELIAVREISGNELIQTYTYEGVEAKRIFKKE | 1.4
L2P4C5: FABP probe, substitutions M18I G31Y vs SEQ ID NO: 2 (protein, listed as Rattus norvegicus, PEPTIDE (1)...(131) wild-type rat intestinal fatty acid binding protein) AFDGTWKVDRNENYEKFIEKMGINVVKRKLYAHDNLKLTITQEGNKFTVKESSNFRNIDVVFELGVDFAYSLADGTELTGTWTMEGNKLVGKFKRVDNGKELIAVREISGNELIQTYTYEGVEAKRIFKKE | 2.6
L2P22H10: FABP probe, substitutions M18I F55G A73M vs SEQ ID NO: 2 (protein, listed as Rattus norvegicus, PEPTIDE (1)...(131) wild-type rat intestinal fatty acid binding protein) AFDGTWKVDRNENYEKFIEKMGINVVKRKLGAHDNLKLTITQEGNKFTVKESSNGRNIDVVFELGVDFAYSLMDGTELTGTWTMEGNKLVGKFKRVDNGKELIAVREISGNELIQTYTYEGVEAKRIFKKE | 1.2
L2P7F4: FABP probe, substitutions M18V G31V A73I vs SEQ ID NO: 2 (protein, listed as Rattus norvegicus, PEPTIDE (1)...(131) wild-type rat intestinal fatty acid binding protein) AFDGTWKVDRNENYEKFVEKMGINVVKRKLVAHDNLKLTITQEGNKFTVKESSNFRNIDVVFELGVDFAYSLIDGTELTGTWTMEGNKLVGKFKRVDNGKELIAVREISGNELIQTYTYEGVEAKRIFKKE | 1.3
L2P21C1: FABP probe, substitutions M18I G31Y A73V vs SEQ ID NO: 2 (protein, listed as Rattus norvegicus, PEPTIDE (1)...(131) wild-type rat intestinal fatty acid binding protein) AFDGTWKVDRNENYEKFIEKMGINVVKRKLYAHDNLKLTITQEGNKFTVKESSNFRNIDVVFELGVDFAYSLVDGTELTGTWTMEGNKLVGKFKRVDNGKELIAVREISGNELIQTYTYEGVEAKRIFKKE | 2.9
